Where do the numbers come from? From the supplement of paper PMC10307832.

# Tested on: HCC-366
# protocol-summary: relative viability (nuclei count vs DMSO), 5 days (fraction); higher = more cells survive
# run-conditions: first compound 15.81 µM
Parameter: relative viability. Scope: all listed entries.
Could you keep your reply to the number by itself?

Example entries begin here.
molecule: O=C(O)CCCCC(CCSCc1ccccc1)SCc1ccccc1 (centres undefined) [CPI-613] + Cc1nc(NC(=O)N2CCC[C@H]2C(N)=O)sc1-c1ccnc(C(C)(C)C(F)(F)F)c1 [Alpelisib] (partner 2 µM)
relative viability: 0.373

molecule: O=C(O)CCCCC(CCSCc1ccccc1)SCc1ccccc1 (centres undefined) [CPI-613] + Nc1nc2[nH]cc(CCc3ccc(C(=O)N[C@@H](CCC(=O)O)C(=O)O)cc3)c2c(=O)[nH]1 [Pemetrexed] (partner 0.2 µM)
relative viability: 0.152

molecule: O=C(O)CCCCC(CCSCc1ccccc1)SCc1ccccc1 (centres undefined) [CPI-613] + CS(=O)(=O)CCNCc1ccc(-c2ccc3ncnc(Nc4ccc(OCc5cccc(F)c5)c(Cl)c4)c3c2)o1 [Lapatinib] (partner 2 µM)
relative viability: 1.02

-- ask What value of measured relative viability is listed for O=C(O)CCCCC(CCSCc1ccccc1)SCc1ccccc1 (centres undefined) [CPI-613] + NC(=O)Nc1cc(-c2cccc(F)c2)sc1C(=O)N[C@H]1CCCNC1 [AZD7762] (partner 0.2 µM) ?
-- reply 0.203

----------
# Tested on: NCI-H1993
# protocol-summary: relative viability (nuclei count vs DMSO), 5 days (fraction); higher = more cells survive
# run-conditions: first compound 0.002 µM
Parameter: relative viability. Scope: all listed entries.
Could you keep your reply to the number by itself?

Example entries begin here.
molecule: CC(=O)O[C@@]12CO[C@@H]1C[C@H](O)[C@@]1(C)C(=O)[C@H](O)C3=C(C)[C@@H](OC(=O)[C@H](O)[C@@H](NC(=O)OC(C)(C)C)c4ccccc4)C[C@@](O)([C@@H](OC(=O)c4ccccc4)[C@H]21)C3(C)C [Docetaxel] + CC(C)C[C@H](NC(=O)[C@H](Cc1ccccc1)NC(=O)c1cnccn1)B(O)O [Bortezomib] (partner 0.002 µM)
tested-target: NCI-H1993
relative viability: 0.798
--
molecule: CC(=O)O[C@@]12CO[C@@H]1C[C@H](O)[C@@]1(C)C(=O)[C@H](O)C3=C(C)[C@@H](OC(=O)[C@H](O)[C@@H](NC(=O)OC(C)(C)C)c4ccccc4)C[C@@](O)([C@@H](OC(=O)c4ccccc4)[C@H]21)C3(C)C [Docetaxel] + O=C(CCCCCCC(=O)Nc1ccccc1)NO [Vorinostat] (partner 1 µM)
tested-target: NCI-H1993
relative viability: 0.376
--
molecule: CC(=O)O[C@@]12CO[C@@H]1C[C@H](O)[C@@]1(C)C(=O)[C@H](O)C3=C(C)[C@@H](OC(=O)[C@H](O)[C@@H](NC(=O)OC(C)(C)C)c4ccccc4)C[C@@](O)([C@@H](OC(=O)c4ccccc4)[C@H]21)C3(C)C [Docetaxel] + Cc1nc(Nc2ncc(C(=O)Nc3c(C)cccc3Cl)s2)cc(N2CCN(CCO)CC2)n1 [Dasatinib] (partner 0.075 µM)
tested-target: NCI-H1993
relative viability: 0.589
--
molecule: CC(=O)O[C@@]12CO[C@@H]1C[C@H](O)[C@@]1(C)C(=O)[C@H](O)C3=C(C)[C@@H](OC(=O)[C@H](O)[C@@H](NC(=O)OC(C)(C)C)c4ccccc4)C[C@@](O)([C@@H](OC(=O)c4ccccc4)[C@H]21)C3(C)C [Docetaxel] + C[C@]1(O)C[C@@H](c2nc(-c3ccc4ccc(-c5ccccc5)nc4c3)c3c(N)nccn32)C1 [Linsitinib] (partner 1 µM)
tested-target: NCI-H1993
relative viability: 0.807
--
molecule: CC(=O)O[C@@]12CO[C@@H]1C[C@H](O)[C@@]1(C)C(=O)[C@H](O)C3=C(C)[C@@H](OC(=O)[C@H](O)[C@@H](NC(=O)OC(C)(C)C)c4ccccc4)C[C@@](O)([C@@H](OC(=O)c4ccccc4)[C@H]21)C3(C)C [Docetaxel] + Cc1nc(NC(=O)N2CCC[C@H]2C(N)=O)sc1-c1ccnc(C(C)(C)C(F)(F)F)c1 [Alpelisib] (partner 2 µM)
tested-target: NCI-H1993
relative viability: 0.741

-- ask What value of measured relative viability is listed for CC(=O)O[C@@]12CO[C@@H]1C[C@H](O)[C@@]1(C)C(=O)[C@H](O)C3=C(C)[C@@H](OC(=O)[C@H](O)[C@@H](NC(=O)OC(C)(C)C)c4ccccc4)C[C@@](O)([C@@H](OC(=O)c4ccccc4)[C@H]21)C3(C)C [Docetaxel] + C[C@@H](Oc1cc(-c2cnn(C3CCNCC3)c2)cnc1N)c1c(Cl)ccc(F)c1Cl [Crizotinib] (partner 1 µM) ?
-- reply 0.791

-- ask What value of measured relative viability is listed for CC(=O)O[C@@]12CO[C@@H]1C[C@H](O)[C@@]1(C)C(=O)[C@H](O)C3=C(C)[C@@H](OC(=O)[C@H](O)[C@@H](NC(=O)OC(C)(C)C)c4ccccc4)C[C@@](O)([C@@H](OC(=O)c4ccccc4)[C@H]21)C3(C)C [Docetaxel] + Nc1nc2[nH]cc(CCc3ccc(C(=O)N[C@@H](CCC(=O)O)C(=O)O)cc3)c2c(=O)[nH]1 [Pemetrexed] (partner 0.2 µM) ?
-- reply 0.64

-- ask What value of measured relative viability is listed for CC(=O)O[C@@]12CO[C@@H]1C[C@H](O)[C@@]1(C)C(=O)[C@H](O)C3=C(C)[C@@H](OC(=O)[C@H](O)[C@@H](NC(=O)OC(C)(C)C)c4ccccc4)C[C@@](O)([C@@H](OC(=O)c4ccccc4)[C@H]21)C3(C)C [Docetaxel] + CC1(C)CCC(c2ccc(Cl)cc2)=C(CN2CCN(c3ccc(C(=O)NS(=O)(=O)c4ccc(N[C@H](CCN5CCOCC5)CSc5ccccc5)c(S(=O)(=O)C(F)(F)F)c4)cc3)CC2)C1 [Navitoclax] (partner 0.5 µM) ?
-- reply 0.703
